test system: SK-MEL-5; experiment: NCI tumour cell line growth inhibition, 48 h
Active and inactive are the calls of the source. Rule as the data show it: active = GI50 up to about 1.1 µM and inactive = higher.

{"Compound": "CC(=O)OCC1OC(N2C(=O)CC(N)=Nc3ccccc32)C(OC(C)=O)C(OC(C)=O)C1OC(C)=O (stereo unspecified)", "GI50": "17 µM (inactive)"}
{"Compound": "CC1(C)N=C(N)N=C(N)N1c1cccc(OCc2cccc(N)c2)c1", "GI50": "12.4 µM (inactive)"}
{"Compound": "Cc1ccc(S(=O)(=O)NCCN(CCNS(=O)(=O)c2ccc(C)cc2)S(=O)(=O)c2ccc(C)cc2)cc1", "GI50": "43.9 µM (inactive)"}
{"Compound": "Cc1ccc(-c2cc(=S)n(-c3ccccc3)c3[nH]c(=S)n(-c4ccccc4)c(=N)c23)cc1", "GI50": "> 100 µM (inactive)"}
{"Compound": "Cc1c(C(=O)CC(=O)C(=O)NC2C3CC4CC(C3)CC2C4)[n+]([O-])c2ccccc2[n+]1[O-] (stereo unspecified)", "GI50": "> 100 µM (inactive)"}
{"Compound": "Oc1cc(Cl)ncn1", "GI50": "> 100 µM (inactive)"}
{"Compound": "CC1(C)OC2[C@@H](CO[C@@]3([C@H]4OC(C)(C)O[C@@H]4CO)OC(C)(C)O[C@@H]23)O1 (stereo partly specified)", "GI50": "> 100 µM (inactive)"}
{"Compound": "OC[C@]1(n2nc3ccccc3n2)OC[C@@H]1c1ccccc1", "GI50": "83.2 µM (inactive)"}
{"Compound": "c1ccc(OCc2nnc3n2N=C(c2ccccc2)CS3)cc1", "GI50": "> 100 µM (inactive)"}
{"Compound": "CSC1=Nc2ccccc2N=C(c2ccccc2)C1", "GI50": "44.5 µM (inactive)"}
{"Compound": "CC1=NN(C(=O)CC(=O)Nc2cccc(Cl)c2)C(=O)C1/N=N/c1ccc(S(N)(=O)=O)cc1 (stereo unspecified)", "GI50": "> 100 µM (inactive)"}
{"Compound": "O=[N+]([O-])c1ccc2nc(-c3ccccn3)c(-c3ccccn3)nc2c1", "GI50": "24.4 µM (inactive)"}
{"Compound": "NC(=S)NS(=O)(=O)c1ccc(F)cc1F", "GI50": "> 100 µM (inactive)"}
{"Compound": "COc1ccc(Oc2ccccc2N)cc1", "GI50": "13.2 µM (inactive)"}
{"Compound": "O=S(=O)(O)c1ccc(/N=N/c2ccc(/N=N/c3c(O)ccc4cc(S(=O)(=O)O)ccc34)cc2)cc1", "GI50": "> 100 µM (inactive)"}
{"Compound": "COc1ccc(Cn2c(=O)c(OC)c(C)c3cc4ccccc4cc32)cc1", "GI50": "6.21 µM (inactive)"}
{"Compound": "CCCC(CC)c1cc(O)c(O)cc1C(CC)CCC (stereo unspecified)", "GI50": "> 10 µM (inactive)"}
{"Compound": "CNc1nc(=S)[nH]c2sc3c(c12)CCCC3", "GI50": "> 75 µM (inactive)"}
{"Compound": "CCOC(=O)c1cnc2sc3ccc4ccccc4c3n2c1=O", "GI50": "32.1 µM (inactive)"}
{"Compound": "COc1ccc2c(c1)[n+]([O-])c(-c1ccc(C)cc1)c(N)[n+]2[O-]", "GI50": "35.8 µM (inactive)"}
{"Compound": "O/N=C1/C(=C/c2ccc(Cl)cc2)CCCC1C(NO)c1ccc(Cl)cc1 (stereo unspecified)", "GI50": "22.7 µM (inactive)"}
{"Compound": "COc1ccc(-c2cc(-c3ccccc3)n(C3OCC(OC(C)=O)C(OC(C)=O)C3OC(C)=O)c(=S)c2C#N)cc1 (stereo unspecified)", "GI50": "> 100 µM (inactive)"}
{"Compound": "O=C(Nc1ccc(Cl)cc1Cl)c1cc2nc3ccccc3c(=O)n2c2ccccc12", "GI50": "> 10 µM (inactive)"}
{"Compound": "[O-]c1c[n+](CCCC[n+]2cc([O-])on2)no1", "GI50": "> 100 µM (inactive)"}
{"Compound": "O=C(c1ccccc1)c1ccc(N2C(=O)/C(=C/c3ccccc3S)N=C2c2ccccc2)c(N2C(=O)/C(=C/c3ccccc3S)N=C2c2ccccc2)c1", "GI50": "29.4 µM (inactive)"}
{"Compound": "COc1cc(/C=C2\\C(=O)N(C(=O)c3ccc(NC(C)=O)cc3)N=C2C)ccc1O", "GI50": "> 100 µM (inactive)"}
{"Compound": "CSc1nnnc2ccccc12", "GI50": "> 100 µM (inactive)"}
{"Compound": "CCNC(=O)Nc1ccccn1", "GI50": "> 100 µM (inactive)"}
{"Compound": "CCOC(=O)c1nc2ccc([N+](=O)[O-])cc2c2c1CCO2", "GI50": "> 100 µM (inactive)"}
{"Compound": "CN(CC(=O)O)Cc1c[nH]c2ccccc12", "GI50": "> 100 µM (inactive)"}
{"Compound": "O=C(/C=C1\\Nc2ccccc2C(=O)N1c1ccc(Cl)cc1)c1ccncc1", "GI50": "> 100 µM (inactive)"}
{"Compound": "CCCCCCCc1c(Cl)nc(Cl)nc1Cl", "GI50": "4.31 µM (inactive)"}
{"Compound": "Cc1cc(=O)[nH]c(-n2[nH]c3c(c2=O)CCCC3)n1", "GI50": "82 µM (inactive)"}
{"Compound": "CC1=C2[C@H](c3ccccc3)C3C=CC2(c2ccccc23)N(C(=O)C(c2ccccc2)c2ccccc2)C1=O (stereo partly specified)", "GI50": "> 100 µM (inactive)"}
{"Compound": "c1ccc2c3c(c(N4CCNCC4)nc2c1)CCCC3", "GI50": "12 µM (inactive)"}
{"Compound": "Cc1cccc(C)c1NC(=O)C1C(=O)N(c2c(C)cccc2C)C(=O)/C1=N\\NC(N)=S (stereo unspecified)", "GI50": "> 100 µM (inactive)"}
